Listed here are compounds together with their documented INHIBITION.
Test system: Plasmodium berghei
Test: Screen against P. berghei liver stage (PbLuc), transformed with Luciferase, at 10uM
Assay type: functional, HepG2
Assay setup: tested at 10 uM
Hit rate of the full screen: of about 69,000 compounds, about 8,600 (12%) showed an effect of 50% or more. The sample holds strong results, similar compounds and a random draw of the others, so the mix is not that of the screen.

Compound: CCc1cc(N2CCCC(CC)(C(=O)O)C2)nc(N2CCOCC2)n1 (stereo not drawn)
INHIBITION (%): 39.6

Compound: CCc1cc(N2CCC3(CCCNC3=O)C2)nc(N2CCOCC2)n1 (stereo not drawn)
INHIBITION (%): 70.3

Compound: Cc1cccc2sc(NC(=O)CN3CCCC(O)(CO)C3)nc12 (stereo not drawn)
INHIBITION (%): 74.5

Compound: COc1ccccc1N1CCN(C(=O)CSCC2CC2)C(C)C1 (stereo not drawn)
INHIBITION (%): 51.2

Compound: Cc1nn(C)c2nc(NC(C)c3nnn[nH]3)sc12 (stereo not drawn)
INHIBITION (%): 1.24

Compound: COCCN1CCC2(COCc3c(C)nc(N4CCOCC4)nc32)C1 (stereo not drawn)
INHIBITION (%): -24.8

Compound: COc1ncccc1CN1CCn2c(C(=O)N3CCCC3)cnc2C1
INHIBITION (%): 7.24

Compound: O=C(Cc1ccon1)NC1CCCN(c2ccccc2F)C1=O (stereo not drawn)
INHIBITION (%): 9.72

Compound: Cc1cc(OCC(=O)N2CCCC(c3nccs3)C2)no1 (stereo not drawn)
INHIBITION (%): -19.6

Compound: Cc1cc2n(n1)CCN(c1nc(N)nc3c1CCNCC3)C2
INHIBITION (%): 12.1

Compound: Cc1cc(CN2CCN(C(=O)c3ccc(=O)n(C)c3)CC2)no1
INHIBITION (%): 7.19

Compound: CC(C)N1CCCCC1c1cc(CO)[nH]n1 (stereo not drawn)
INHIBITION (%): -8.24

Compound: c1ccc(-c2nnc(CNCCn3cccn3)o2)cc1
INHIBITION (%): 32.6

Compound: COc1cc(C(=O)NCC2CC2)nc2c(C)cc(F)cc12
INHIBITION (%): 55.4

Compound: CN(C)C(=O)N1CCC2(CC1)C(=O)N(CC1CCOC1)c1ccccc12 (stereo not drawn)
INHIBITION (%): 7.5

Compound: Cn1ccc(C(=O)NCc2ccc(CN3CCCCC3)cc2)cc1=O
INHIBITION (%): -19.9

Compound: Cc1ccn2c(F)c(C(=O)N3CCC4(CCCN(C)C4=O)C3)nc2c1 (stereo not drawn)
INHIBITION (%): 3.69

Compound: Cc1nc2c(c(N3CCN(c4ncccc4C(N)=O)CC3)n1)CCNC2
INHIBITION (%): 32.5

Compound: Cc1nc(C(C)Nc2nc3c(s2)c(C)nn3C)n[nH]1 (stereo not drawn)
INHIBITION (%): 52.1

Compound: Cc1cccc2sc(NC(=O)CN3CCCC4(CC3)CNC(=O)O4)nc12 (stereo not drawn)
INHIBITION (%): 38.7

Compound: CC(C)c1nc(CCn2cncn2)n(-c2ccc3c(c2)OCCO3)n1
INHIBITION (%): 3.96

Compound: COCC(=O)N1CCCC2(CCN(Cc3cccc(C)n3)C2=O)C1 (stereo not drawn)
INHIBITION (%): 43.9

Compound: CCN1CCN(C)C2(CCN(Cc3ccc(C)o3)CC2)C1=O
INHIBITION (%): -93.5

Compound: CN(C)c1nc2c(c(N3CCc4ccccc4C3)n1)CCNC2
INHIBITION (%): 66.7

Compound: Cc1nc(C)n(CC2CCCN2Cc2cn3ccccc3n2)n1 (stereo not drawn)
INHIBITION (%): -17.6

Compound: CNCc1ccc([C@@H]2CN(C(C)=O)C[C@H]2C(N)=O)cc1
INHIBITION (%): -2.46

Compound: COCCNC(=O)c1cc(C2CC2)nc2onc(C3CCNC3)c12 (stereo not drawn)
INHIBITION (%): 25.1

Compound: Cc1cnn(CCNCc2nnc(C3CC3)o2)c1
INHIBITION (%): 21.2

Compound: COCCN1C[C@@H]2CCCO[C@@H]2[C@H](NC(=O)c2cnccn2)C1
INHIBITION (%): -17

Compound: CN(C)c1nc(N2CCCC2)nc2c1CCN(C(=O)c1ccco1)CC2
INHIBITION (%): 28.2

Compound: CNC(=O)C1Cn2ccnc2C2(CCN(Cc3c(C)noc3C)CC2)O1 (stereo not drawn)
INHIBITION (%): 3.11

Compound: COc1ccccc1N1CCN(C(=O)CSC(C)C)C(C)C1 (stereo not drawn)
INHIBITION (%): 17.6

Compound: Cc1noc(C)c1CN1CCn2cc(CN3CCCCC3)nc2C1
INHIBITION (%): -33.1

Compound: Nc1cnn(CC(=O)N2CCCCC2)c1
INHIBITION (%): 34

Compound: Cc1ncc(-c2ccncc2)c(C2CCN(C(=O)c3ccno3)CC2)n1
INHIBITION (%): 24.05

Compound: Cc1cc2n(n1)CCN(c1nc(N(C)C)nc3c1CCNC3)C2
INHIBITION (%): 57.6

Compound: CCCS(=O)(=O)N1CCC2(CC1)CN(C(=O)N(C)C)c1ccccc12
INHIBITION (%): 10.7

Compound: Cc1ccc(-c2nnc(CNCCn3cc(C)cn3)o2)cc1
INHIBITION (%): 14.4

Compound: NCCC1CN(c2nc(-c3ccccc3)nc3c2CCNC3)CCO1 (stereo not drawn)
INHIBITION (%): 38.2

Compound: CCc1nc(C)c(C(=O)NCCN2CCC(C)CC2)s1
INHIBITION (%): 15.6

Compound: Cc1cc(C)nc(N2CCOC(C)(C(=O)N(C)C)C2)n1 (stereo not drawn)
INHIBITION (%): -11.4

Compound: Cc1cc(C2CCC2)nc(N2CCC3(CCCNC3=O)C2)n1 (stereo not drawn)
INHIBITION (%): 42.5

Compound: Cc1cccc(=O)n1CCCNc1nc(N(C)C)nc2c1CCNC2
INHIBITION (%): 10.9

Compound: Cc1cccc2sc(NC(=O)CN3CCC(C)CC3)nc12
INHIBITION (%): 14.1

Compound: Cc1cccc(C)c1NC(=O)CC(CN1CCN(C)CC1)C(=O)O (stereo not drawn)
INHIBITION (%): 5.21

Compound: COc1cc(C(=O)NCC2CCCO2)nc2c(C)cc(F)cc12 (stereo not drawn)
INHIBITION (%): -14.8

Compound: COc1cccc(C(=O)N2CCC(Nc3ccc(C)nn3)CC2)c1
INHIBITION (%): 21.5

Compound: Cn1cc(C(=O)NCc2ccc(N3CCCC3)nc2)ccc1=O
INHIBITION (%): 35.9

Origin of measurements: ChEMBL document CHEMBL4513216
